# System name: human DGKζ (Homo sapiens (Human))
# Sequence (Q13574 other isoform, or with tags, fused parts or gaps): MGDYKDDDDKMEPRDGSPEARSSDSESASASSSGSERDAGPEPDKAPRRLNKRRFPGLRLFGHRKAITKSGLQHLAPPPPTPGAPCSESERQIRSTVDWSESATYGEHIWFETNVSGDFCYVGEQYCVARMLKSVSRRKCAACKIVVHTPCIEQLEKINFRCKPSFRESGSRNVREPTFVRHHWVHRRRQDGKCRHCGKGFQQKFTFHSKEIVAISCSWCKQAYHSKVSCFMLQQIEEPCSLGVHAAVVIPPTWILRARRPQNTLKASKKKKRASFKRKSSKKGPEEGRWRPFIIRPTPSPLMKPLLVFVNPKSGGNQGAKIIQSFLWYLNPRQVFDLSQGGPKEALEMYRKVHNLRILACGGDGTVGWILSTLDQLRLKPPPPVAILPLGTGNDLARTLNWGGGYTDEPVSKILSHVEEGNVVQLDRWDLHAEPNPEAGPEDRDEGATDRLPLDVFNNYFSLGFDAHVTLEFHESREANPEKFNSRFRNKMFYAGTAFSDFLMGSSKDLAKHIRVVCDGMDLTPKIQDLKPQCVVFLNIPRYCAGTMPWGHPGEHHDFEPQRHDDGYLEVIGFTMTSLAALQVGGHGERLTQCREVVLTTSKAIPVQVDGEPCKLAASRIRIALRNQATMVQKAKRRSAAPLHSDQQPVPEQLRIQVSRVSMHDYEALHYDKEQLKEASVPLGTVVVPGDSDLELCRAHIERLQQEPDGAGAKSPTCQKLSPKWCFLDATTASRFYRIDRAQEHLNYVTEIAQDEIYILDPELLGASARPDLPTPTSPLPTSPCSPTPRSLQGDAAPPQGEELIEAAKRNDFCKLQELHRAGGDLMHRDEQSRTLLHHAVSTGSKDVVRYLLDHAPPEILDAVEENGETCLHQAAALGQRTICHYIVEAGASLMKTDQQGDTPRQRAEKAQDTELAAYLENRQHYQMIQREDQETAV
# Protocol details: Human DGKζ kinase activity inhibition assay (ADP-Glo)
# Type: biochemical
# Assay context: in vitro human DGKζ kinase activity inhibition assay; read-out: IC50
Lab note: cut-off is 100 nM. Strictly less in IC50 is Met. Exactly 100 nM or more is Not met.

Solved entries:
- Compound: "CC(C(N)=O)N(c1cccnc1)c1nc(N)c(C(=O)c2ccccc2)s1 (single isomer, unassigned) [Example 79.1]"
  System name: "human DGKζ (Homo sapiens (Human))"
  Cat: "Not met"
- Compound: "CC(C(N)=O)N(c1ccc(F)cc1)c1nc(N)c(C(=O)c2ccc(OCC(=O)N3CCc4ccccc4C3)cc2)s1 (racemic) [Example 133]"
  System name: "human DGKζ (Homo sapiens (Human))"
  Cat: "Met"
- Compound: "COc1ccc(C(=O)c2sc(N(c3ccc(F)c(F)c3)C(C)C(N)=O)nc2N)cn1 (single isomer, unassigned) [Example 52.1]"
  System name: "human DGKζ (Homo sapiens (Human))"
  Cat: "Met"
- Compound: "CC(C(N)=O)N(c1ccc2c(c1)OCO2)c1nc(N)c(C(=O)c2ccccc2)s1 (racemic) [Example 196]"
  System name: "human DGKζ (Homo sapiens (Human))"
  Cat: "Not met"
- Compound: "CC(C(N)=O)N(c1ccc(F)cc1)c1nc(N)c(C(=O)c2ccc(OCC(=O)Nc3ccc(F)cc3)cc2)s1 (racemic) [Example 122]"
  System name: "human DGKζ (Homo sapiens (Human))"
  Cat: "Met"
- Compound: "Cc1ccccc1N(c1nc(N)c(C(=O)c2ccccc2)s1)C(C)C(N)=O (single isomer, unassigned) [Example 77.2]"
  System name: "human DGKζ (Homo sapiens (Human))"
  Cat: "Not met"

Query: State whether 100 nM exceeds IC50 recorded for CC(C(N)=O)N(c1ccc(F)cc1)c1nc(N)c(C(=O)c2ccc(Cl)c(Cl)c2)s1 (racemic) [Example 26] .
Result: Met

Query: Decide: IC50 of CC(C(N)=O)N(c1ccc(F)cc1)c1nc(N)c(C(=O)c2ccc(C#N)c(F)c2)s1 (racemic) [Example 21] strictly below 100 nM?
Result: Not met

Query: Please indicate whether the reported IC50 of CC(C(N)=O)N(c1cnn(C)c1)c1nc(N)c(C(=O)c2ccccc2)s1 (single isomer, unassigned) [Example 78.2] is strictly below 100 nM.
Result: Not met

Data origin: patent US11964953B2
